target: CD28 (Homo sapiens, UniProt P10747); test: Flow binding to Jurkat/IL2 reporter cells (CD28); parameters: host or cells: Jurkat cells expressing an IL-2-luciferase reporter; conditions: Table E11; Jurkats (CD28); 33.3 nM
Some molecules, each annotated with its measured CD28 MFI at 33.3 nM.
Give a plain numeric answer without units written out.

Worked cases, answers included:
[
  {
    "molecule": "V22D/E24D/E35D/M47L/V68M (protein, CD80 v383 ECD) VIHVTKEVKEVATLSCGHNVSDEDLAQTRIYWQKDKKMVLTMMSGDLNIWPEYKNRTIFDITNNLSIMILALRPSDEGTYECVVLKYEKDAFKREHLAEVTLSVKADFPTPSISDFETPTSNIRRIICSTSGGFPEPHLSWLENGEELNAINTTVSQDPETELYAVSSKLDFNMTTNHSFMCLIKYGHLRVNQTFNWNTTKQEHFPDN",
    "CD28 MFI at 33.3 nM": 1254
  },
  {
    "molecule": "E24D/E35D/M47L/V68M/E95V/L97Q (protein, UniProt P33681 35-288, looked up, variant E24D E35D M47L V68M E95V L97Q) T-lymphocyte activation …: VIHVTKEVKEVATLSCGHNVSVEDLAQTRIYWQKDKKMVLTMMSGDLNIWPEYKNRTIFDITNNLSIMILALRPSDEGTYECVVLKYEKDAFKRVHQAEVTLSVKADFPTPSISDFEIPTSNIRRIICSTSGGFPEPHLSWLENGEELNAINTTVSQDPETELYAVSSKLDFNMTTNHSFMCLIKYGHLRVNQTFNWNTTKQEHFPDNLLPSWAITLISVNGIFVICCLTYCFAPRCRERRRNERLRRESVRPV",
    "CD28 MFI at 33.3 nM": 15
  }
]

Shifting focus to the molecule that follows.
Measured CD28 MFI at 33.3 nM, T13R/E35D/M47LN68M (protein) VIHVTKEVKEVARLSCGHNVSVEELAQTRIYWQKDKKMVLTMMSGDLNIWPEYKNRTIFDITNNLSIMILALRPSDEGTYECVVLKYEKDAFKREHLAEVTLSVKAD : 15.6
